# Experiment description: Oral bioavailability in Sprague-Dawley rat at 3 mg/kg
# Assay type: ADME, organism-based
# Condition notes: in vivo
Observed property: bioavailability (%)

INSERT INTO results (smiles_str, recorded_number) VALUES
  ('Cc1nc(NC(=O)N2C[C@H](N(C)C)C[C@H]2C(N)=O)sc1-c1csc(C2(C)CC2)n1', 59);

---

# Experiment description: Permeability of the compound from basolateral to apical side in human Caco2 cells
# Type: ADME, cell-based
# Condition notes: Caco-2, read-out: permeability
Use T when the recorded Papp B→A is no lower than 20 ×10⁻⁶ cm/s; use F when it is lower.

INSERT INTO results (smiles_str, cat) VALUES
  ('Cc1nc(NC(=O)N2CCC[C@H]2C(N)=O)sc1-c1ccc(S(C)(=O)=O)c(F)c1', 'F'),
  ('Cc1nc(NC(=O)N2CC[C@H](O)[C@H]2C(N)=O)sc1-c1csc(C(C)(C)C)n1', 'F'),
  ('Cc1nc(NC(=O)N2C[C@H](O)C[C@H]2C(N)=O)sc1-c1csc(C(C)(C)C)n1', 'F'),
  ('Cc1nc(NC(=O)N2CC[C@H](C)[C@H]2C(N)=O)sc1-c1csc(C(C)(C)C)n1', 'F'),
  ('Cc1nc(NC(=O)N2C[C@H](F)C[C@H]2C(N)=O)sc1-c1csc(C(C)(C)C)n1', 'T'),
  ('Cc1nc(NC(=O)N2C[C@@H](O)C[C@H]2C(N)=O)sc1-c1csc(C(C)(C)C)n1', 'T'),
  ('Cc1nc(NC(=O)N2CCC[C@@]2(C)C(N)=O)sc1-c1csc(C(C)(C)C)n1', 'F');

---

# Experiment description: Permeability of the compound from apical to basolateral side in human Caco2 cells
# Assay type: ADME, cell-based
# Condition notes: Caco-2, read-out: permeability
Label key: label 1 means Papp A→B under 1 ×10⁻⁶ cm/s; label 0 means Papp A→B of 1 ×10⁻⁶ cm/s or more.

INSERT INTO measurements (smiles_str, cat) VALUES
  ('Cc1nc(NC(=O)N2C[C@H](O)C[C@H]2C(N)=O)sc1-c1csc(C(C)(C)C)n1', 'label 1'),
  ('Cc1nc(NC(=O)N2CCC[C@H]2C(N)=O)sc1-c1ccc(S(C)(=O)=O)c(F)c1', 'label 0'),
  ('Cc1nc(NC(=O)N2CC[C@H](O)[C@H]2C(N)=O)sc1-c1csc(C(C)(C)C)n1', 'label 1'),
  ('Cc1nc(NC(=O)N2CCC[C@@]2(C)C(N)=O)sc1-c1csc(C(C)(C)C)n1', 'label 0'),
  ('Cc1nc(NC(=O)N2CC[C@H](C)[C@H]2C(N)=O)sc1-c1csc(C(C)(C)C)n1', 'label 0'),
  ('Cc1nc(NC(=O)N2C[C@@H](O)C[C@H]2C(N)=O)sc1-c1csc(C(C)(C)C)n1', 'label 0'),
  ('Cc1nc(NC(=O)N2C[C@H](F)C[C@H]2C(N)=O)sc1-c1csc(C(C)(C)C)n1', 'label 0');

---

# Experiment description: Plasma concentration in athymic nude mouse at 10 mg/kg, iv after 2 hrs
# Format: ADME, organism-based
Observed property: concentration at 2 h

INSERT INTO measurements (smiles_str, result) VALUES
  ('Cc1nc(NC(=O)N2CCC[C@@]2(C)C(N)=O)sc1-c1csc(C(C)(C)C)n1', '< 50 nM');
